- Procedure Details: Aqueous solubility study in buffers at 37° C.
- Assay type: physicochemical
- Particulars: acetate buffer, aqueous buffer, thermodynamic from solid; acetate (pH 4.5), overnight at 37° C.
Counter-ions that a name gives are not always drawn.
Assay Metric: solubility (mg/mL)
I only need the number, in mg/mL, no unit after it.

Q: Given the compound O=C(Cc1ccc(-c2ccc(OCCN3CCOCC3)cc2)cn1)NCc1ccccc1 [KX2-391.MSA, mesylate] , what is its reported solubility?
A: 737

* * *

Catalogue of solubility values
- Procedure Details: Solubility in DI water and pH 2.0 phosphate buffer
- Type: physicochemical
- Particulars: pH 6.9, water, thermodynamic from solid
Counter-ions that a name gives are not always drawn.

{"Compound": "O=C(Cc1ccc(-c2ccc(OCCN3CCOCC3)cc2)cn1)NCc1ccccc1 [KX2-391.MSA, mesylate]", "Result": "> 500 mg/mL"}

Attention now turns to another entry.
Q: Given the compound Cl.Cl.O=C(Cc1ccc(-c2ccc(OCCN3CCOCC3)cc2)cn1)NCc1ccccc1 [KX2-391.2HCl] , what is its reported solubility?
A: > 500 mg/mL
